Values from the kinase profiling compilation of Christmann-Franck et al. (2016)

- Measured target: CDC42BPG (human) (UniProt Q6DT37)
- Sequence (Q6DT37 whole entry, looked up): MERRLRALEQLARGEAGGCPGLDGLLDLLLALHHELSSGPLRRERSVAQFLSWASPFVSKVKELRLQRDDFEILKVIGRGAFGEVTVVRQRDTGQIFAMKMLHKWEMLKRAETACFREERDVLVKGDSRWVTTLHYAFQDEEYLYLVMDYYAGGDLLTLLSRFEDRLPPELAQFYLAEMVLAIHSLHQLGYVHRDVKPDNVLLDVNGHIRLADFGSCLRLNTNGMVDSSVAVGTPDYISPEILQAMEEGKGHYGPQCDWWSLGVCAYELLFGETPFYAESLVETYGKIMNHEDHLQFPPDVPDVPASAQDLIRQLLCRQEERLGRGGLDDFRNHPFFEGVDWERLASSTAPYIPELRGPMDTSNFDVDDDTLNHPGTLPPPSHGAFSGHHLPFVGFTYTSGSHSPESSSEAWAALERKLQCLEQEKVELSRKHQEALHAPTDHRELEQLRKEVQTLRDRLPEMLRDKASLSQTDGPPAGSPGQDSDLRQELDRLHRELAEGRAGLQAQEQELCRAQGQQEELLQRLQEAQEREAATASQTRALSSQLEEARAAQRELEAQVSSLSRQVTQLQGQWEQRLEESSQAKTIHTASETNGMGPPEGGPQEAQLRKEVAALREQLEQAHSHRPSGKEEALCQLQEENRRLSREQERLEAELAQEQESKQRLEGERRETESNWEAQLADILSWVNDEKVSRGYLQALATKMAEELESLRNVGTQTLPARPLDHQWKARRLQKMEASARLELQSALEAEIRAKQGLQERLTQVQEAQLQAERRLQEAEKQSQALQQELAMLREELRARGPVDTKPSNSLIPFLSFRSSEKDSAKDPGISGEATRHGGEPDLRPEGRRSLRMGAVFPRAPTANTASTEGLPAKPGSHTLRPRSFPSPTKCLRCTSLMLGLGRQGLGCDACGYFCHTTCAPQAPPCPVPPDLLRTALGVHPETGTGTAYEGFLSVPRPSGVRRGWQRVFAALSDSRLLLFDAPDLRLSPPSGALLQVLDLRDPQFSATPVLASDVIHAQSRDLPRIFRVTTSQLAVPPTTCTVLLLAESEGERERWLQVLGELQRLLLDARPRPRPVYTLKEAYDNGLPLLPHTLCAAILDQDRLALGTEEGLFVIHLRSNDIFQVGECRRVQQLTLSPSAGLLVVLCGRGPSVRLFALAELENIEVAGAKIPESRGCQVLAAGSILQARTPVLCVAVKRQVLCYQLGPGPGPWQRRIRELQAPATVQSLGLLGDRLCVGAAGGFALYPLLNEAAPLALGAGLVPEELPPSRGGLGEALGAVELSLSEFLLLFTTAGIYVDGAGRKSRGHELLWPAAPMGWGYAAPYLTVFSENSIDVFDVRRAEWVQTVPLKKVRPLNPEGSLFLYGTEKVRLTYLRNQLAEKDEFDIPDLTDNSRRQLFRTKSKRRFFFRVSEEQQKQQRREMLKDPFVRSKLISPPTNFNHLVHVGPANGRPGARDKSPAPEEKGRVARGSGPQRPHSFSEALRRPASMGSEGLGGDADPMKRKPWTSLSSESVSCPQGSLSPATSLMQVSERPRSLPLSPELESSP
- Experiment notes: KINOMEscan competition binding
- Measurement context: compound 1.0 µM
Outcome measure: kinase still bound, per cent of control (%)
Reply numerically in %, unit not repeated.

Q) Please give measured kinase still bound, per cent of control of the following entry: "Cc1cc(NC(=O)c2cccc(NC(=O)/C=C/CN(C)C)c2)ccc1Nc1nccc(-c2cccnc2)n1"
A) 86

Q) Find the measured kinase still bound, per cent of control of "CN(C)C/C=C/C(=O)Nc1cccc(C(=O)Nc2ccc(Nc3nccc(/C(C#N)=C4\Nc5ccccc5S4)n3)cc2)c1" and report it.
A) 88

Q) Consider the compound "CN(C)C/C=C/C(=O)Nc1cccc(C(=O)Nc2ccc(Nc3nccc(-c4c(-c5ccccc5)nn5ccccc45)n3)cc2)c1" . State its measured kinase still bound, per cent of control.
A) 0.25

Q) Answer with the recorded kinase still bound, per cent of control of "CN(C)C/C=C/C(=O)Nc1cccc(C(=O)Nc2ccc(Nc3nccc(-c4cccnc4)n3)cc2)c1" only.
A) 73

---

Hi there, I'd appreciate the recorded IC50 for every entry that follows.
Write the value in nM as a bare number.

Q) Write IC50 of "CN(C)C/C=C/C(=O)Nc1cccc(C(=O)Nc2ccc(Nc3nccc(-c4c(-c5ccccc5)nn5ccccc45)n3)cc2)c1" ; system used: MAPK8 (human)
A) 39

Q) Specify the recorded IC50 for "CN(C)C/C=C/C(=O)Nc1cccc(C(=O)Nc2ccc(Nc3nccc(/C(C#N)=C4\Nc5ccccc5S4)n3)cc2)c1" , system: MAPK8 (human).
A) 327

Q) Answer briefly: IC50 recorded on MAPK8 (human) for "CN(C)C/C=C/C(=O)Nc1cccc(C(=O)Nc2ccc(Nc3nccc(-c4cccnc4)n3)cc2)c1"
A) 41

---

- Measured target: PDGFRB (human) (UniProt P09619)
- Sequence (P09619 whole entry, looked up): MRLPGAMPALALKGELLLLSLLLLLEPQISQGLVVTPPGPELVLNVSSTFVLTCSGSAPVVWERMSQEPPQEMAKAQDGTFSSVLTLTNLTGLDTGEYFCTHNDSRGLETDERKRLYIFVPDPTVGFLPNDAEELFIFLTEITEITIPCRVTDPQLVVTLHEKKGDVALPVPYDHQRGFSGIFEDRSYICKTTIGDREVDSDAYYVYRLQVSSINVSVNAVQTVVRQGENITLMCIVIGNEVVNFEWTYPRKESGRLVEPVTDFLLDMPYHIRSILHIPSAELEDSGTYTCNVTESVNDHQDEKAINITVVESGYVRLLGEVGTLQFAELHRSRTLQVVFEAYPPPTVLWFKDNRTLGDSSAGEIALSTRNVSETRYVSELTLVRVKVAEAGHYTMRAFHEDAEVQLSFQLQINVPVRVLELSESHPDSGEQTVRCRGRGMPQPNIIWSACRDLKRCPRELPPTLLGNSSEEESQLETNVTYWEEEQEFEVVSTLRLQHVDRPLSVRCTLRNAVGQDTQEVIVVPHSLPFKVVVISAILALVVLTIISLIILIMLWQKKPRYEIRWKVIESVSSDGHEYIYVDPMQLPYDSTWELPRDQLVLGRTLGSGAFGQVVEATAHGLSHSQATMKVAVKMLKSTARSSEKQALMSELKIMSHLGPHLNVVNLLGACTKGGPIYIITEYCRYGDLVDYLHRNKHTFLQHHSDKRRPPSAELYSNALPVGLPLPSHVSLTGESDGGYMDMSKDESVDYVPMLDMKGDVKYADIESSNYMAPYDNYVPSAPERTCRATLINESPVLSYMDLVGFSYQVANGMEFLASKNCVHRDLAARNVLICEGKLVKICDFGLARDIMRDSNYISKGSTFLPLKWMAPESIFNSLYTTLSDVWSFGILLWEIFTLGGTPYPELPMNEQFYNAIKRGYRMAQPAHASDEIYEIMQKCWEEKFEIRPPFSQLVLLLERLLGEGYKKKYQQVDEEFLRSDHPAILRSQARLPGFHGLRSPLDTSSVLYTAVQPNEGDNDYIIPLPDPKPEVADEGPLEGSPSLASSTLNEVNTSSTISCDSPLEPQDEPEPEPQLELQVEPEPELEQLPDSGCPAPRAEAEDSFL
Outcome measure: IC50 (nM)
Quick reminder: number only, in nM, skip the unit.

Q) Identify measured IC50 corresponding to "CN(C)C/C=C/C(=O)Nc1cccc(C(=O)Nc2ccc(Nc3nccc(-c4c(-c5ccccc5)nn5ccccc45)n3)cc2)c1"
A) 1030

---

- Measured target: STK17A (human)
- Experiment notes: KINOMEscan competition binding
- Measurement context: compound 1.0 µM
Assignment: determine reported kinase still bound, per cent of control for the given compounds.
All answers are understood in %, so give the number only.

Q) Write kinase still bound, per cent of control of "CN(C)C/C=C/C(=O)Nc1cccc(C(=O)Nc2ccc(Nc3nccc(-c4c(-c5ccccc5)nn5ccccc45)n3)cc2)c1" ; system used: STK17A (human)
A) 93

Q) Using STK17A (human) as the test system, report measured kinase still bound, per cent of control of "CN(C)C/C=C/C(=O)Nc1cccc(C(=O)Nc2ccc(Nc3nccc(-c4cccnc4)n3)cc2)c1" .
A) 1.3

Q) State kinase still bound, per cent of control on STK17A (human). Entry: "Cc1cc(NC(=O)c2cccc(NC(=O)/C=C/CN(C)C)c2)ccc1Nc1nccc(-c2cccnc2)n1"
A) 24

Q) Name the value of kinase still bound, per cent of control reported for "CN(C)C/C=C/C(=O)Nc1cccc(C(=O)Nc2ccc(Nc3nccc(/C(C#N)=C4\Nc5ccccc5S4)n3)cc2)c1" when tested on STK17A (human).
A) 100

---

- Measured target: ITK (human)
- Experiment notes: KINOMEscan competition binding
- Measurement context: compound 1.0 µM
Could you please report measured kinase still bound, per cent of control for the items listed next?
I only need the number, in %, no unit after it.

Q) Quick one: give measured kinase still bound, per cent of control for "CN(C)C/C=C/C(=O)Nc1cccc(C(=O)Nc2ccc(Nc3nccc(/C(C#N)=C4\Nc5ccccc5S4)n3)cc2)c1"
A) 85

Q) Output kinase still bound, per cent of control of "CN(C)C/C=C/C(=O)Nc1cccc(C(=O)Nc2ccc(Nc3nccc(-c4c(-c5ccccc5)nn5ccccc45)n3)cc2)c1"
A) 100

Q) Name the recorded kinase still bound, per cent of control of the compound listed here: "CN(C)C/C=C/C(=O)Nc1cccc(C(=O)Nc2ccc(Nc3nccc(-c4cccnc4)n3)cc2)c1"
A) 85

Q) Query kinase still bound, per cent of control for "Cc1cc(NC(=O)c2cccc(NC(=O)/C=C/CN(C)C)c2)ccc1Nc1nccc(-c2cccnc2)n1"
A) 100
